Target: T1, transforming growth factor-beta 3 (TGF-β3) (UniProt P10600 301-412)
T1 construct: also called TGFb3; TGFB3
T1 sequence (looked up): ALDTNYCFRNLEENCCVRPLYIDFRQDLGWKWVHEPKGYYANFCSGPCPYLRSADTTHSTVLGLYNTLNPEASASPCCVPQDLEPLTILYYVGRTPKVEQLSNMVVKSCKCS
Experiment: ELISA, peptide on streptavidin plate, ligand 100 ng/ml
Ends that are not written are not given here.
EXPERIMENTAL_ENDPOINT: ELISA OD450 (OD450)
Entry rule: numbers only, all in OD450.

So what does the record say about ELISA OD450 for YEQSDEEQDSVKVALLETNPG (also: biotinylated, site not given here) [CLPTM1 peptide fragment of SEQ ID NO: 25] ?
0.014

Another: NDYWNLQKDYYPINESLASLG (also: biotinylated, site not given here) [CLPTM1 peptide fragment of SEQ ID NO: 22]
0.025

Could you do the same for LWRWQLYAAQSTKSPWNFLGDELYEQSDEEQDSVKVALLETNP (also: biotinylated, site not given here, also called peptide 26; GT2) [CLPTM1 peptide fragment of SEQ ID NO: 33] , please?
0.007

Here is the next binder: ARSAVVAAGGGSSGQVTSNGSIGRDPPAETQPQNPPAQPA (also: biotinylated, site not given here, also called peptide 27; GT3) [CLPTM1 peptide fragment of SEQ ID NO: 34]
0.003

Can you handle STKSPWNFLGDELYEQSDEEG (also: biotinylated, site not given here) [CLPTM1 peptide fragment of SEQ ID NO: 24] next?
0.012

Origin of values: patent US20190328788A1
